Reference source: patent US4895931A

test_target: porcine pancreas PLA2 (Sus scrofa)
Construct: purchased Sigma Chemical Co. P6534; host or cells: porcine pancreas
Sequence (P00592 23-146): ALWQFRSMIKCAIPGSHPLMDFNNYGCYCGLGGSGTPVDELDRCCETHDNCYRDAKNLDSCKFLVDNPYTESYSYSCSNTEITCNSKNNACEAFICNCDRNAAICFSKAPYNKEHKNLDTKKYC
test_summary: PLA2-inhibiting activity (release of [1-14C] arachidonic acid from labelled phosphatidylcholine)
Format: biochemical
measurement_setup: Amount of sample: 100 mg; relative to Compound (IV) = 1.00
Where a SMILES comes first, the peptide text is derived from it.
In this section, each of the compounds is paired with its reported Inhibition ratio (Inhibition rate of test compound/Inhibition rate of Compound (IV)).
Reply briefly: the number, and no unit.

Worked cases, answers included:
compound	endpoint_value
CC(C)C[C@H](NC(=O)[C@H](C)NC(=O)[C@H](CCCCN)NC(=O)[C@H](CCCCN)NC(=O)[C@H](CC(C)C)NC(=O)[C@@H](NC(=O)[C@H](CCC(=O)O)NC(=O)[C@H](CC(=O)O)NC(=O)[C@H](CC(C)C)NC(=O)[C@@H]1CCCN1C(=O)[C@@H](N)CCCCN)[C@@H](C)O)C(=O)N[C@H](C(=O)NCC(=O)N[C@@H](Cc1c[nH]cn1)C(=O)N[C@@H](CC(C)C)C(=O)N[C@@H](CCC(=O)O)C(=O)O)[C@@H](C)O [IV] (H-KPLDETLKKALTGHLE-OH)	1.00
CC[C@H](C)[C@H](NC(=O)[C@H](CCCNC(=N)N)NC(=O)[C@@H](NC(=O)[C@H](CC(C)C)NC(=O)[C@H](C)NC(=O)[C@H](CCCCN)NC(=O)[C@H](Cc1c[nH]cn1)NC(=O)[C@H](CCCNC(=N)N)NC(=O)[C@@H](NC(=O)CNC(=O)[C@@H](NC(=O)CN)C(C)C)[C@@H](C)O)[C@@H](C)CC)C(=O)N[C@@H](CCSC)C(=O)N[C@H](C(=O)N[C@@H](CO)C(=O)N[C@@H](CCCNC(=N)N)C(=O)O)C(C)C [X] (H-GVGTRHKALIRIMVSR-OH; N-terminus and C-terminus assumed)	1.19

Task item: Name the recorded Inhibition ratio (Inhibition rate of test compound/Inhibition rate of Compound (IV)) for CC[C@H](C)[C@H](N)C(=O)N[C@@H](CCC(=O)O)C(=O)N[C@H](C(=O)N[C@@H](CC(C)C)C(=O)N[C@@H](C)C(=O)N[C@@H](CO)C(=O)N[C@@H](CCCNC(=N)N)C(=O)N[C@H](C(=O)N[C@@H](CC(N)=O)C(=O)N[C@@H](CCCCN)C(=O)N[C@@H](CCC(=O)O)C(=O)N[C@H](C(=O)N[C@@H](CCCNC(=N)N)C(=O)N[C@@H](CC(=O)O)C(=O)N[C@H](C(=O)O)[C@@H](C)CC)[C@@H](C)CC)[C@@H](C)O)[C@@H](C)CC [V] (H-IEILASRTNKEIRDI-OH) .
Reply: 0.56

Task item: Name the recorded Inhibition ratio (Inhibition rate of test compound/Inhibition rate of Compound (IV)) for CC[C@H](C)[C@H](NC(=O)[C@H](C)NC(=O)[C@@H](NC(=O)[C@H](CC(C)C)NC(=O)[C@H](CS)NC(=O)[C@@H](N)CCCCN)[C@@H](C)O)C(=O)N[C@H](C(=O)N[C@@H](CCCCN)C(=O)N[C@@H](CS)C(=O)N[C@@H](C)C(=O)N[C@H](C(=O)N[C@@H](CO)C(=O)N[C@@H](CCCCN)C(=O)N1CCC[C@H]1C(=O)N[C@@H](C)C(=O)O)[C@@H](C)O)C(C)C [VIII] (H-KCLTAIVKCATSKPA-OH; N-terminus and C-terminus assumed) .
Reply: 1.06
